>  <molecule>
CCCCCCCCc1ccc(CCC(NC(C)=O)(C(O)OC(C)=O)C(O)OC(C)=O)cc1 (configuration not stated)

>  <melting point>
105 to 107 °C

$$$$
>  <molecule>
CN(CCCc1ccccc1)[C@H]1CC[C@H](c2ccc(O)cc2)CC1

>  <melting point>
156 to 158 °C

$$$$
>  <molecule>
CC(=O)Nc1nnc(S(=O)(=O)Cc2ccccc2)o1

>  <melting point>
245 to 248 °C

$$$$
>  <molecule>
COCc1c(C)ccc(C(O)=S)c1C

>  <melting point>
192 to 194 °C

$$$$
>  <molecule>
CC(=O)NC(C(=O)c1ccccc1N)[N+](=O)[O-] (configuration not stated)

>  <melting point>
178 to 179 °C

$$$$
>  <molecule>
CCc1cc2c(=O)n3cc(C(=O)OC)ccc3nc2s1

>  <melting point>
151 to 152 °C

$$$$
>  <molecule>
COC(=O)Cc1ccc2oc(=S)[nH]c2c1

>  <melting point>
120 to 122 °C

$$$$
>  <molecule>
CN(C)C=NS(=O)(=O)c1cc(CCNC(=O)C(F)(F)F)ccc1-c1ccco1

>  <melting point>
150 °C

$$$$
>  <molecule>
CCCCCCCC(=O)N1CCc2nnc(NN=C(C)C)cc2C1

>  <melting point>
118 to 121 °C

$$$$
>  <molecule>
Cc1cc2ccccc2n1-c1ccnc2ccccc12

>  <melting point>
78 to 80 °C

$$$$
>  <molecule>
COc1ccc(CNS(C)(=O)=O)cc1OC

>  <melting point>
78 to 81 °C

$$$$
>  <molecule>
Nc1nc(N)c(N)c(OCC2CCCCC2)n1

>  <melting point>
154 °C

$$$$
>  <molecule>
CCOc1ccc(N(C)C=C(C#N)C#N)cc1

>  <melting point>
147 to 148 °C

$$$$
>  <molecule>
Cc1ccc(S(=O)(=O)N2[C@H](CCCc3nnnn3C)CC[C@@H]2c2ccc(F)cc2)cc1 (racemic)

>  <melting point>
153 °C

$$$$
>  <molecule>
CCC(=O)C1c2cccc(O)c2C(=O)c2c(OC(=O)C(C)C)cccc21 (configuration not stated)

>  <melting point>
111 °C

$$$$
>  <molecule>
CC1(C)OC(=O)C(C(=O)Nc2ccc(C(F)(F)F)cc2)=C(O)O1

>  <melting point>
206 to 208 °C

$$$$
>  <molecule>
CCCCCCC(=O)c1ccc(OCC(=O)O)c(Cl)c1Cl

>  <melting point>
104 to 105 °C

$$$$
>  <molecule>
CCOC(=O)c1cnn2c(C(F)(F)F)cc(-c3ccc(C(F)(F)F)cc3)cc12

>  <melting point>
130 °C

$$$$
>  <molecule>
COCc1nc(N)nc(N)c1-c1c(Cl)cccc1Cl

>  <melting point>
204 to 207 °C

$$$$
>  <molecule>
Fc1ccc([C@H]2CC[C@H](N3CCN(Cc4ccccc4)CC3)CC2)c2ccccc12

>  <melting point>
130 to 132 °C

$$$$
>  <molecule>
COCCN1C(=O)C(C)(C)C(=O)Nc2cc(CN(CCn3cc(C)c4occc4c3=O)Cc3cccnc3C)ccc21

>  <melting point>
205 to 206 °C

$$$$
>  <molecule>
COC(=O)c1cc2cc(O)ccc2o1

>  <melting point>
132 to 133 °C

$$$$
